Values from patent US10669272B2

- Target System: human DGKζ (Homo sapiens, UniProt Q13574)
- Construct: TVMV protease cleavage site (C); Hexa-His (C); made in house; host or cells: Sf9 insect cells (baculovirus, Bac-to-Bac)
- Sequence (Q13574 with tags, fused parts or gaps isoform Q13574-4): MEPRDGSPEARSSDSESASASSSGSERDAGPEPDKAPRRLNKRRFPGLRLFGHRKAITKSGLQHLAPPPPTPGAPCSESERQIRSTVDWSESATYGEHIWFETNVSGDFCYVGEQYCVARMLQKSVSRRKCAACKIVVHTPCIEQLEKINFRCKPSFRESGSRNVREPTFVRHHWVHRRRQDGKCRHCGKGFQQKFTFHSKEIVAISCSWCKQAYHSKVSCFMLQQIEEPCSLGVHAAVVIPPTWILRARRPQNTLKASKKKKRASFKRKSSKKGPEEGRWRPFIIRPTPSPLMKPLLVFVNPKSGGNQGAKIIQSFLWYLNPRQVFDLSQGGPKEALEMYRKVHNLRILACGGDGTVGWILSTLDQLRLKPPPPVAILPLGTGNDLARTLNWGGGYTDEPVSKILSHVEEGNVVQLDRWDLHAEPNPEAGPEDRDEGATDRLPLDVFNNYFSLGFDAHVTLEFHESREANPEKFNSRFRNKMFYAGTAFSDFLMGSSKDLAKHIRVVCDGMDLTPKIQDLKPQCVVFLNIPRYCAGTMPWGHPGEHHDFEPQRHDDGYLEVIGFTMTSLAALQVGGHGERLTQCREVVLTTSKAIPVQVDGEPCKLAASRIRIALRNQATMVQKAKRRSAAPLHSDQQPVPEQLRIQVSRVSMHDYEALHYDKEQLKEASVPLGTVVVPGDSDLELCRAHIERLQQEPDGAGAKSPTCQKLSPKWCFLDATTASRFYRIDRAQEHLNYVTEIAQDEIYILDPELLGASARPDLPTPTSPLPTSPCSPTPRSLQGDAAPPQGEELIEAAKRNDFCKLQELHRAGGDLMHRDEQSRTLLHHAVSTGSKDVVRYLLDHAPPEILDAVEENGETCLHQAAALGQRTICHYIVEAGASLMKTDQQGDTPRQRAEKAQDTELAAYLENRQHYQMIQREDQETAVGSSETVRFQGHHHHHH
- Procedure Details: DGKζ LIPGLO assay (extruded liposome substrate), in vitro DGK inhibition
- Format: biochemical
- Condition Set: DGKζ liposome (LIPGLO) assay; read-out: DGKz LIPGLO IC50
pIC50: −log10 of the molar value.
Measurement Label: pIC50

Answered cases to consult:
Compound | Obs Value
C[C@@H]1CN(c2c(C#N)c(=O)n(C)c3ccc(C#N)nc23)CCN1C(c1ccc(F)cc1)c1ccc(C#N)cc1 (single isomer, unassigned) [Example 920] | 4.89
Cc1ccc(C(c2ccc(F)cc2)N2CCN(c3c(C#N)c(=O)n(C)c4ccc(C#N)nc34)C[C@H]2C)cc1 (stereo partly drawn) [Example 888] | 6.48
C[C@@H]1CN(c2c(C#N)c(=O)n(C)c3ccc(C#N)nc23)CCN1C(c1ccc(F)cc1)c1cnn(C)c1 (stereo partly drawn) [Example 1016] | 5.12
C[C@@H]1CN(c2c(C#N)c(=O)n(C)c3ccc(C#N)nc23)[C@@H](C)CN1C(c1ccc(F)cc1)c1cn(C)cn1 (single isomer, unassigned) [Example 852] | 5.24
C[C@@H]1CN(c2c(C#N)c(=O)n(C)c3ccc(C#N)nc23)[C@@H](C)CN1C(c1ccccc1)c1cc(F)cc(F)c1 (single isomer, unassigned) [Example 814] | 6.00
Cc1cccc(C(c2ccc(F)cc2)N2CCN(c3c(C#N)c(=O)n(C)c4ccc(C#N)nc34)C[C@H]2C)c1 (stereo partly drawn) [Example 916] | 6.35
Cc1ccc(C(c2cccc(Cl)c2)N2CCN(c3c(C#N)c(=O)n(C)c4ccc(C#N)nc34)C[C@H]2C)nc1 (single isomer, unassigned) [Example 928] | 5.82
CC(c1ccc(OC(F)(F)F)cc1)N1CCN(c2c(C#N)c(=O)n(C)c3ccc(C#N)nc23)C[C@H]1C (single isomer, unassigned) [Example 958] | 4.55

a = C[C@@H]1CN(c2c(C#N)c(=O)n(C)c3ccc(C#N)nc23)CCN1C(c1ccc(F)cc1)c1cncn1C (single isomer, unassigned) [Example 1018]
b = C[C@@H]1CN(c2c(C#N)c(=O)n(C)c3ccc(C#N)nc23)CCN1Cc1cccc(C#N)n1 [Example 989]
Form field 'greater pIC50' accepts a or b ; which applies? Kindly state the label of the option you pick.
b

1 = CC(c1ccc(F)cc1)N1CCN(c2c(C#N)c(=O)n(C)c3ccc(C#N)nc23)C[C@H]1C (single isomer, unassigned) [Example 957]
2 = C[C@@H]1CN(c2c(C#N)c(=O)n(C)c3ccc(C#N)nc23)[C@@H](C)CN1C(c1ccc(F)cc1)c1ccon1 (single isomer, unassigned) [Example 851]
Kindly identify which of 1 and 2 has the larger recorded pIC50 value. Let me know the label of the one you choose.
1

1 = C[C@@H]1CN(c2c(C#N)c(=O)n(C)c3ccc(C#N)nc23)CCN1C(c1ccc(F)cc1)c1cncn1C (single isomer, unassigned) [Example 1019]
2 = C[C@@H]1CN(c2c(C#N)c(=O)n(C)c3ccc(C#N)nc23)CCN1C(c1ccc(F)cc1)c1ccc(C(F)(F)F)cc1 (single isomer, unassigned) [Example 914]
Please tell me which of the two, 1 or 2 , has the higher reported pIC50 value. When you have decided, please share the label of that item.
2
(2: 5.82, 1: 5.23)

A = C[C@@H]1CN(c2c(C#N)c(=O)n(C)c3ccc(C#N)nc23)CCN1C(c1ccc(Cl)cc1)c1ccc(C#N)cc1 (single isomer, unassigned) [Example 873]
B = Cc1cccc(C(c2ccc(F)cc2)N2C[C@H](C)N(c3c(C#N)c(=O)n(C)c4ccc(C#N)nc34)C[C@H]2C)n1 (stereo partly drawn) [Example 815]
C = C[C@@H]1CN(c2c(C#N)c(=O)n(C)c3ccc(C#N)nc23)[C@@H](C)CN1C(c1ccc(F)cc1)c1cncn1C (stereo partly drawn) [Example 849]
D = Cc1ccc(C(c2ccc(C)cc2)N2CCN(c3c(C#N)c(=O)n(C)c4ccc(C#N)nc34)C[C@H]2C)cc1 [Example 870]
// sort entries: pIC50, high to low Write the labels in rank order as requested.
D, B, A, C
(D: 6.51, B: 5.39, A: 5.14, C: 3.89)
